Reported EC50 values for the following compounds.
Molecular target: human mAChR M4 (Homo sapiens, UniProt P08173)
Sequence (P08173 1-479): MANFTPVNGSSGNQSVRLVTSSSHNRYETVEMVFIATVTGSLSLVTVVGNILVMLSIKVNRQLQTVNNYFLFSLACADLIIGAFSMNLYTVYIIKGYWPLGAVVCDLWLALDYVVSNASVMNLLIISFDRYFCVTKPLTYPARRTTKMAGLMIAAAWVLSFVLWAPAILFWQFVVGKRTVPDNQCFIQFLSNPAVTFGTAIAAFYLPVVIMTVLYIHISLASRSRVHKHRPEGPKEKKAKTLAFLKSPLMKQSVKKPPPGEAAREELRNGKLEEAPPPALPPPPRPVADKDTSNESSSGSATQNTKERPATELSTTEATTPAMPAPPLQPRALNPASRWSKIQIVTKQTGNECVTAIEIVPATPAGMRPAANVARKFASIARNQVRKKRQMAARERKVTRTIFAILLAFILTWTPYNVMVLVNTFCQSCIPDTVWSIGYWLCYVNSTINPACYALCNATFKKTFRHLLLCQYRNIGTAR
Test: mAChR M4 cell-based functional assay (calcium flux), human M4
Conditions: Human M4 EC50 (nM), Table 10; calcium flux, PAM activity with EC20 acetylcholine
Structures can show the parent of a compound that is named as a salt.
A number alone suffices; assume nM.

Below, each entry is followed by its recorded EC50 result.
# compound, unitsText, EC50
rows = [
    ("Cc1c(Cl)cnc2sc3c(NC4CCC4)ncnc3c12", "nM", 3230),
    ("COc1ccc(C2CC2Nc2ncnc3c2sc2nc(C)cc(C)c23)cc1 (stereo not drawn)", "nM", 1640),
]

Let us examine a further case.
Task: So what does the record say about EC50 for Cc1nc2oc3c(NC4CN(c5ncc(C(F)(F)F)cn5)C4)ncnc3c2c(C)c1Cl [Compound 241, hydrochloride] ?
Output: 1010
